target: HLA-A2 on T2 cells pulsed with FBXL22: 4-12 peptide (human); experiment: flow cytometry, 10 ug/ml, pulsed T2 cells
Entries annotated with measured ratio of MFI, pulsed to unpulsed
Kindly answer with a numeric value in ratio, unit omitted.

binder	measurement-kind	unit-info	reported-result
mAb28042P (antibody, human IgG4 S228P, kappa, V domains shown) VH: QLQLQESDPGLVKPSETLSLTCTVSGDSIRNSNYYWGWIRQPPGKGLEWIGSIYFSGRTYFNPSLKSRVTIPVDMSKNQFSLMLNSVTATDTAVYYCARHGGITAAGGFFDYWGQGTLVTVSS VL: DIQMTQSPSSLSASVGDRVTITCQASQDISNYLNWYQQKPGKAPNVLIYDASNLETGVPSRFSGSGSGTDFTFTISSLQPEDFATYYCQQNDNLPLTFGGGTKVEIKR	ratio of MFI, pulsed to unpulsed	ratio	0.5
mAb29814P (antibody, human IgG4 S228P, kappa, V domains shown) VH: QVQLVESGGGVVQPGRSLRLSCVASGFTFSSYGMHWVRQAPGKGLEWVAVIWYVGSNKYYGDSVKGRFTISRDNSKNTLYLQMNSLRAEDTAVYYCARDLIADRPGYYYNGMDVWGQGTTVTVSS VL: EIVMTQSPVTLFVSPGERATLSCRASQSVNTNLAWYQQQPGQAPRLLIHGASTRPTGVPARFSGSGSGTEFTLIISSLQSEDFAVYYCQQYNNWPPWTFGQGTKVEIKR	ratio of MFI, pulsed to unpulsed	ratio	0.5
mAb28037P2 (antibody, human IgG4 S228P, kappa, V domains shown) VH: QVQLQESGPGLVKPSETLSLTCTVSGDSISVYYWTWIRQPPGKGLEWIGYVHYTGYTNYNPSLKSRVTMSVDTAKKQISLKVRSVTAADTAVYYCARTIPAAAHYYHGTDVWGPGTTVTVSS VL: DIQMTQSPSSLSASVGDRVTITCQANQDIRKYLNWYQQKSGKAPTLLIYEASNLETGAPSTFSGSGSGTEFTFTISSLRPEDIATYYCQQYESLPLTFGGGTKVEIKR	ratio of MFI, pulsed to unpulsed	ratio	0.5
mAb24958N (antibody, human IgG4 S228P, kappa, V domains shown) VH: QVQLQESGPGLVKPSQTLSLTCTVSGGSIISDGYYWSWIRQHPGKGLEWIGYVDYSGNTYYNPSLKSRIIMSVDTSKNQFSLKLTSVTAADTAVYFCVREGPLRDAFEIWGQGTMVTVSS VL: DIQMTQSPSSLSASVGDRVTITCRTSQSISRYLNWYQQKPGKAPKLLIFAASSLQSGVPSRFSGSGSGADFTLTISSLQPEDFATYYCQQSYSTPPITFGQGTRLEIKR	ratio of MFI, pulsed to unpulsed	ratio	0.5

Now turn to the next binder.
[ask] Bench note: what ratio of MFI, pulsed to unpulsed did mAb28128P (antibody, human IgG4 S228P, kappa, V domains shown) VH: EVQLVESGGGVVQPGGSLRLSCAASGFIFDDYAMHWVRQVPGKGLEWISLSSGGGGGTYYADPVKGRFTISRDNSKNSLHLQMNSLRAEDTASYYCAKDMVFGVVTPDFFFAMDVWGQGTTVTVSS VL: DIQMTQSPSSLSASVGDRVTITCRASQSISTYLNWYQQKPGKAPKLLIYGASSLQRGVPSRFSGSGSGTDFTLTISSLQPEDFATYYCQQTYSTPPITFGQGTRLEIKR show?
[reply] 1.3
